SYSTEM_TESTED: Heat shock protein HSP 90-alpha (Homo sapiens, UniProt P07900)
Type: functional, organism-based
Active and inactive are the calls of the source.
TEST_READOUT: AC50

Use the examples below as a reference point.
> print(dat)
                                   compound  reported.measurement
1  CC(C)C(=O)NC(c1ccc(Cl)cc1Cl)c1ccc2cccnc2c1O (centres undefined)      25.5 µM (active)
2                CCN(CC)C(=S)SSC(=S)N(CC)CC      5.18 µM (active)
3  CC(C)(C)C1C/C(=C/c2ccccn2)C(=O)/C(=C/c2ccccn2)C1 (centres undefined)       7.8 µM (active)

Okay, now this compound:
get_value(item= O=C(/C=C/c1cc(Br)ccc1O)c1ccco1 , readout=AC50) returns 7.73 µM (active)

====

Test system: Vero
METHOD_SUMMARY: cells
Format: functional
ASSAY_SETUP: Chlorocebus sabaeus
The source made the active and inactive calls. How the calls were made is not given here.
TEST_READOUT: CC50

Use the examples below as a reference point.
> print(dat)
                                   compound  reported.measurement
1  COc1cc(/C=C2/C(=O)c3cccc([N+](=O)[O-])c3C2=O)c(Br)cc1O      16.4 µM (active)
2  CCN(CC)CCNc1nc(-c2ccc(OC)cc2)c(-c2ccc(OC)cc2)s1      > 25 µM (active)
3  COc1ccccc1C(C[N+](=O)[O-])c1c(N)n(C)c(=O)n(C)c1=O (centres undefined)      9.01 µM (active)

Okay, now this compound:
Form field CC50 for item CC(=Nc1ccccc1)C1=C(O)C(Cc2ccc(O)cc2)NC1=O (centres undefined) on Vero: 0.98 µM (active)

====

SYSTEM_TESTED: DNA dC->dU-editing enzyme APOBEC-3A (Homo sapiens, UniProt P31941)
Sequence (P31941 whole entry): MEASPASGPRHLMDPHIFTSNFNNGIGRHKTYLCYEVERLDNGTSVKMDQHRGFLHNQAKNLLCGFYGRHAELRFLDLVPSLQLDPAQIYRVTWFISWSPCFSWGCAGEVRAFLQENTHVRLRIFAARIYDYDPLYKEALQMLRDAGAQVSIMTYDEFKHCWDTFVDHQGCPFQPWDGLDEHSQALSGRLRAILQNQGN
METHOD_SUMMARY: Dose Response confirmation of small molecule APOBEC3A DNA Deaminase Inhibitors via a fluorescence-based single-stranded DNA deaminase assay. [Related pubchem assays (depositor defined):AID493011, AID493024]
Assay type: functional
The source made the active and inactive calls. No rule for the calls is given here.
TEST_READOUT: IC50

> print(dat)
                                   compound  test.readout  reported.measurement
1  CCOC(=O)C1CCN(S(=O)(=O)c2ccc3c(c2)CC(=O)N3C)CC1          IC50      2.81 µM (active)
2  CCN1CCN(c2ccc(S(=O)(=O)N3CCCCC3)cc2NC(=O)c2cccc(C(F)(F)F)c2)CC1          IC50      7.71 µM (active)
3  COC(=O)C(C)N1C(=O)S/C(=C\c2ccc(-c3ccc(C(=O)O)cc3C)o2)C1=O (stereo unspecified)          IC50      5.66 µM (active)
4  C[n+]1cccc(C(=O)N/N=C/c2ccc3c(c2)OCO3)c1          IC50      3.15 µM (active)
5  O=C(Nc1ccc(NC(=O)c2ccc(Cl)cc2Cl)cc1)c1cccs1          IC50      10.6 µM (active)

Okay, now this compound:
get_value(item= CC[n+]1c(C)n(Cc2ccccc2)c2ccc(C(=O)OC)cc21 , readout=IC50) returns 2.88 µM (active)

Source: ChEMBL document CHEMBL1201862
